Experiment: NCI Yeast Anticancer Drug Screen. Data for the mec2-1 strain (AID 157)
Details: S. cerevisiae mec2-1 strain, at 50.0 µM
Compounds without any hit were thinned out: in the full panel of roughly 79,000, 15% have a hit. Activity calls are given as the source filed them. Rule as the data show it: active = growth inhibition above about 70%; inactive = the rest.
Assign a class; possible classes are class 1 (active), class 0 (inactive)

Reference set (8 entries):
Query: Per the records of this test, what outcome belongs to CCC(OC(=O)C1C(C=C(C)C)C1(C)C)c1cc2c(cc1Cl)OCO2 (configuration not stated) ?
Result: class 0

Query: Per the records of this test, what outcome belongs to CC12CCC3C(CCC4=CC(O)CCC43C=O)C1(O)CCC2c1ccc(=O)oc1 (configuration not stated) ?
Result: class 0

Query: Per the records of this test, what outcome belongs to CN1CCOP(=O)(Oc2ccccc2)N1 (configuration not stated) ?
Result: class 0

Query: Per the records of this test, what outcome belongs to Cc1ccc(O)cc1Cl ?
Result: class 0

Query: Per the records of this test, what outcome belongs to CC1CC(C)OP(Oc2ccccc2)O1 (configuration not stated) ?
Result: class 0

Query: Per the records of this test, what outcome belongs to ClCCN(CCCl)c1ccc2c(c1)Cc1cc(Br)ccc1-2 ?
Result: class 0

Query: Per the records of this test, what outcome belongs to [CH3][Sn]1([CH3])[O]CC(COc2cc(Cl)c(Cl)cc2Cl)[O]1 (configuration not stated) ?
Result: class 0

Query: Per the records of this test, what outcome belongs to N#CC(C#N)=Cc1ccccc1[N+](=O)[O-] ?
Result: class 0

New cases:
Query: Per the records of this test, what outcome belongs to O=C(CC(=O)c1ccccc1)c1ccccc1.O=C(CC(=O)c1ccccc1)c1ccccc1.[Pd] ?
Result: class 0

Query: Per the records of this test, what outcome belongs to C=[CH][Pb]([CH]=C)([CH]=C)[O]C(C)=O ?
Result: class 1

* * *

Experiment: NCI Yeast Anticancer Drug Screen. Data for the mlh1 rad18 strain (AID 175)
Conditions: S. cerevisiae mlh1 rad18 strain growth inhibition; at 50.0 µM; stronger effect = higher value
This is part of a sample that, as a whole, favours compounds with a hit. Of some 79,000 tested, about 15% had one in any assay.
For each entry below, report its growth inhibition value.
Give bare numbers, in %.

Worked examples, 5 compounds total:
Query: Indicate its recorded growth inhibition; the compound in question is O=NN(Cc1ccccc1)Cc1ccccc1
Result: 21.4

Query: Indicate its recorded growth inhibition; the compound in question is CCC(Br)(CC)C(=O)NC(N)=O
Result: -6.05

Query: Indicate its recorded growth inhibition; the compound in question is Cc1ccc(OP(=O)(Oc2ccc(C)cc2)Oc2ccc(C)cc2)cc1.Cc1ccc(OP(=O)(Oc2ccc(C)cc2)Oc2ccc(C)cc2)cc1.Cc1ccc(OP(=O)(Oc2ccc(C)cc2)Oc2ccc(C)cc2)cc1.Cc1ccc(OP(=O)(Oc2ccc(C)cc2)Oc2ccc(C)cc2)cc1.[Nd+3].[O-][Cl+3]([O-])([O-])O
Result: 25.7

Query: Indicate its recorded growth inhibition; the compound in question is CCCCOP(=S)(OCCCC)Oc1ccc(Cl)cc1Cl
Result: -1.95

Query: Indicate its recorded growth inhibition; the compound in question is COc1ccc(S(=O)(=O)F)cc1NC(=O)CCc1ccc(N2C(N)=NC(N)=NC2(C)C)cc1Cl
Result: 65.2

# map each compound to its growth inhibition
1. OCCCNCc1cccnc1
2. NNC(=S)N/N=C(\C(=O)Nc1cccc(O)c1)C1C(=O)NC(=S)NC1=O
3. Cn1cnnc1N

Result:
25.9
-17.9
4.35

# map each compound to its growth inhibition
1. C/C=C(/C)C(=O)O[C@H]1CC[C@@]2(C)[C@@H]3CC[C@H]4[C@]5(O)C[C@H](O)[C@@]6(O)[C@@H](CN7C[C@@H](C)CC[C@H]7[C@@]6(C)O)[C@]5(O)C[C@@]42O[C@@]13O
2. C/C=C1/CN2C3C[C@H]1C(CO)(C(=O)OC)[C@H]2Cc1c3n(C)c2ccccc12 (stereo not given in full)

Result:
1: 30.6; 2: -8.9

* * *

Assay: NCI Yeast Anticancer Drug Screen. Data for the mlh1 rad18 strain (AID 175)
Details: S. cerevisiae mlh1 rad18 strain growth inhibition; at 50.0 µM; stronger effect = higher value
The panel holds about 79,000 compounds, 15% with a hit somewhere; the sample as a whole holds those more often.
assayReadout: growth inhibition (%)
One number for each entry, in %.

Worked examples, 4 molecules total:
Query: Indicate its recorded growth inhibition; the molecule in question is O=C1NC(=O)C(CCO)(c2ccccc2)C(=O)N1
Result: -4.15

Query: Indicate its recorded growth inhibition; the molecule in question is O=P(O)(O)c1ccccc1
Result: 4.65

Query: Indicate its recorded growth inhibition; the molecule in question is O=c1oc2ccccc2c(O)c1C(c1ccc2c(c1)OCO2)c1c(O)c2ccccc2oc1=O
Result: 28.4

Query: Indicate its recorded growth inhibition; the molecule in question is [CH3][Sn]([CH3])([Br])[CH2]CCCBr
Result: 99.3

# map each molecule to its growth inhibition
1. COc1cc(N=Nc2ccc([N+](=O)[O-])cc2)ccc1N(CCCl)CCCl
2. O=NNc1cccc(NN=O)n1
3. CC(=O)[CH-]C(C)=O.O=[N+]([O-])O.[NH-]C1CCCCC1[NH-].[Pt+4] (configuration not stated)

Result:
[12.8, -3.15, 94.8]

# map each molecule to its growth inhibition
1. Nc1ccc([N+](=O)[O-])cc1
2. NC1=NC(N)=N1
3. COC(=O)C1c2cc(OC)c(OC)cc2C(=O)N2CCc3cc4c(cc3C12)OCO4 (configuration not stated)
4. N#CC(C#N)=C(C#N)C#N
5. Cc1ccc(SCC(CSCCO)OCn2cnc3c2NC(N)=NC32OCCO2)cc1 (configuration not stated)

Result:
1: -1; 2: -13.2; 3: 9.2; 4: 6.25; 5: -56.9

* * *

Experiment: NCI Yeast Anticancer Drug Screen. Data for the mec2-1 strain (AID 157)
Conditions: S. cerevisiae mec2-1 strain, at 50.0 µM, stronger effect = higher value
The panel holds about 79,000 compounds, 15% with a hit somewhere; the sample as a whole holds those more often.
For each entry below, report its growth inhibition value.
Numbers only, in %.

Query: Indicate its recorded growth inhibition; the compound in question is O=[As]c1ccc2c(c1)NC(O)=CO2 (centres undefined)
Result: 38.6

Query: Indicate its recorded growth inhibition; the compound in question is CC(C)=CCN=C(N)N
Result: -51.1

Query: Indicate its recorded growth inhibition; the compound in question is CSP(N)(=O)OC(C)C (centres undefined)
Result: 11.8

Query: Indicate its recorded growth inhibition; the compound in question is O=c1cc([N+](=O)[O-])n(O)cc1[N+](=O)[O-]
Result: 12.6

Query: Indicate its recorded growth inhibition; the compound in question is Cc1csc2sc3ccccc3[n+]12
Result: -6.85

Query: Indicate its recorded growth inhibition; the compound in question is OC1CN=C2c3ccccc3C(O)(c3ccc(Cl)cc3)N2C1 (centres undefined)
Result: 22.1

Query: Indicate its recorded growth inhibition; the compound in question is CCCCOP(=O)(/C=C/c1cccs1)OCCCC
Result: 37

Query: Indicate its recorded growth inhibition; the compound in question is CCCOP(=O)(CCl)OCCC
Result: -5.05

Query: Indicate its recorded growth inhibition; the compound in question is Nc1ccc(N)cc1
Result: 25.8

Query: Indicate its recorded growth inhibition; the compound in question is O=C(c1ccccc1)c1c(CC(O)c2ccccc2)n(C(=O)c2ccccc2)c2ccccc12 (centres undefined)
Result: -20.1

# map each compound to its growth inhibition
1. CCCCCCCCCCNP(=O)(Oc1ccccc1)Oc1ccccc1
2. COc1ccc2c(c1OC(C)=O)C1=CC(=O)CCC13CCNC3C2 (centres undefined)
3. CC(=O)C1(O)CCC2(O)C3(O)CC=C4CC(O)CCC4(C)C3CC(OC(=O)c3ccc(O)cc3)C12C (centres undefined)
4. Cc1ncc(CNC(=O)N(CCCl)N=O)c(N)n1

Result:
1. 4.05
2. 6.7
3. 2.85
4. -6.8

# map each compound to its growth inhibition
1. CCOC(CCCN1CCC2(CC1)C(=O)N(C)CN2c1ccccc1)(OCC)c1ccc(F)cc1
2. O=C(Nc1ccccc1)c1ccc([As](c2ccc(C(=O)Nc3ccccc3)cc2)c2ccc(C(=O)Nc3ccccc3)cc2)cc1

Result:
20.8
-7

* * *

Assay: NCI Yeast Anticancer Drug Screen. Data for the cln2 rad14 strain (AID 165);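 also: 0% = growth equal to vehicle treated cultures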
Conditions: S. cerevisiae cln2 rad14 strain, at 50.0 µM, stronger effect = higher value
Compounds without any hit were thinned out: in the full panel of roughly 79,000, 15% have a hit.
For each entry below, report its growth inhibition value.
One number for each entry, in %.

Worked examples, 3 compounds total:
Query: Indicate its recorded growth inhibition; the compound in question is O=C(O)C(O)CO.[Pb] (stereo not drawn)
Result: 12.4

Query: Indicate its recorded growth inhibition; the compound in question is O=C1CN=C(c2ccccc2)c2cc(Cl)ccc2N1
Result: 16.1

Query: Indicate its recorded growth inhibition; the compound in question is COc1ccc(CCN)cc1OC
Result: -82

# map each compound to its growth inhibition
1. O=P(O)(Nc1ccccc1)Nc1ccccc1
2. O=C1NC(=O)C(Cc2cccc(Cl)c2)C(=O)N1

Result:
-15.1
-8.05
